# experimentalSystem: UniProt P61964
# testMethodNotes: Surface Plasmon Resonance (SPR) assay, KD and residence time
# Format: binding
# experimentalConditions: surface plasmon resonance (SPR); read-out: WDR5 binding affinity (KD)
I'd appreciate it if you marked entries yes (1) when Kd is lower than 2 nM and no (0) when it is not.

Reference set (2 entries):
>>> labelclass("C[C@@H]1CN(c2cc(F)c(-c3ncc(C(=O)NC4CCCCC4)s3)cc2NC(=O)c2c[nH]c(=O)cc2C(F)(F)F)C[C@H](C)N1C")
"yes (1)"
>>> labelclass("C[C@@H]1CN(c2cc(F)c(-c3cnc(N4CCOC[C@H]4C)nc3)cc2NC(=O)c2c[nH]c(=O)cc2C(F)F)CCN1C (stereo in doubt)")
"yes (1)"

# input Is the reported Kd for CCN(CC)[C@@H]1CCN(c2cc(F)c(-c3cnc(N4CCOCC4)nc3)cc2NC(=O)c2cn(C)c(=O)cc2C(F)(F)F)C1 strictly below 2 nM?
# output no (0)

# input Would you mind doing C[C@@H]1CN(c2cc(F)c(-c3csc(C(=O)N4CCN(C)CC4)n3)cc2NC(=O)c2cn(C)c(=O)cc2C(F)(F)F)C[C@H](C)N1C as well?
# output no (0)

# input Same thing, different compound: C[C@@H]1CN(c2cc(F)c(C3=CCCN(c4ncc(C=O)cn4)C3)cc2NC(=O)c2c[nH]c(=O)cc2C(F)(F)F)C[C@H](C)N1C
# output yes (1)

# input Same thing, different compound: C[C@@H]1CN(c2cc(F)c(C3=CCN(C(=O)N4CCCC4)C3)cc2NC(=O)c2c[nH]c(=O)cc2C(F)F)C[C@H](C)N1C
# output yes (1)

----------
# experimentalSystem: WDR5 (Homo sapiens (Human), UniProt P61964)
# testMethodNotes: Surface Plasmon Resonance (SPR) assay, KD and residence time
# Type: binding
# experimentalConditions: surface plasmon resonance (SPR); read-out: WDR5 binding affinity (KD)
# reported Kd; entries follow

See these solved cases before continuing.
>>> reportedmeasurement("C[C@@H]1CN(c2cc(F)c(-c3ccc(C(N)=O)c(F)c3F)cc2NC(=O)c2ccc(F)cc2C(F)(F)F)C[C@H](C)N1C")
"9.65 nM"
>>> reportedmeasurement("C[C@@H]1CN(c2cc(F)c(-c3ccc(C(N)=O)c(F)c3)cc2NC(=O)c2cn(C)c(=O)cc2C(F)(F)F)C[C@H](C)N1C")
"3.32 nM"
>>> reportedmeasurement("CC1CN(c2cc(F)c(-c3ccc(C(N)=O)c(F)c3)cc2NC(=O)c2cn(C)c(=O)cc2C(F)F)CCN1C (stereo in doubt)")
"5.29 nM"
>>> reportedmeasurement("CC1CN(c2cc(F)c(-c3ccc(F)c(C(N)=O)c3)cc2NC(=O)c2ccc(F)cc2C(F)(F)F)CCN1C (stereo in doubt)")
"5.3 nM"
>>> reportedmeasurement("C[C@@H]1CN(c2ncc(-c3cc(NC(=O)c4cn(C)c(=O)cc4C(F)F)c(N4CCN(C)[C@@H](C)C4)cc3F)cn2)CCO1 (racemic)")
"3.43 nM"

# input Requested read-out: Kd. Entry: C[C@@H]1CN(c2cc(F)c(-c3cc(F)c(C(N)=O)c(F)c3)cc2NC(=O)c2c[nH]c(=O)cc2C(F)F)C[C@H](C)N1C
# output 1.93 nM
